Known pIC50 of a selection of molecules
# measured-target: human Cot/Tpl2 kinase (Homo sapiens)
# Construct: human Cot/Tpl2 kinase construct encoding residues 30-398; 6His (N); made in house; host or cells: Sf9 insect cells, baculovirus system (BD Biosciences)
# assay-method-text: Tpl2/Cot kinase assay: GST-MEK1 phosphorylation detected by ELISA (DELFIA Eu)
# Type: biochemical
# settings: 0.4 nM Tpl2, 35 nM GST-MEK1, 50 uM ATP, 1 h at 30° C.
// scale note: pIC50 = -log10(conc_M); give the bare number

In [3]: df
Out[3]:
                                   molecule  measured_endpoint  reported_measurement
0  N#Cc1cnc2c(Br)cc(NCc3cn(CC(O)CN4CCOCC4)nn3)cc2c1Nc1ccc(F)c(Cl)c1 (centres unmarked) [Example 319]              pIC50                  6.68
1  CCN1CCCC(n2cc(CNc3cc(Cl)c4ncc(C#N)c(Nc5ccc(F)c(Cl)c5)c4c3)nn2)CC1 (centres unmarked) [Example 330]              pIC50                  8.07
2  N#Cc1cnc2c(Cl)cc(NCc3cncnc3)cc2c1Nc1ccc(F)c(Cl)c1 [Example 272]              pIC50                  7.33
3  CN1CCC(n2cc(CNc3cc(Br)c4ncc(C#N)c(Nc5ccc(F)c(Cl)c5)c4c3)nn2)CC1 [Example 317]              pIC50                  7.72
4  N#Cc1cnc2c(Br)cc(NCc3cn(CCN4CCCC4)nn3)cc2c1Nc1ccc(F)c(Cl)c1 [Example 308]              pIC50                  7.55

Just so you know, measured pIC50 for N#Cc1cnc2c(Br)cc(NCc3nn[nH]c3-c3cccc(F)c3)cc2c1Nc1ccc(F)c(Cl)c1 [Example 119] came out at 6.46

Just so you know, measured pIC50 for N#Cc1cnc2ccc(NCc3nccs3)cc2c1Nc1ccc(F)c(Cl)c1 [Example 8] came out at 7.51

###

# measured-target: human Cot/Tpl2 kinase (Homo sapiens, UniProt P41279)
# Construct: human Cot/Tpl2 kinase construct encoding residues 30-398; 6His (N); made in house; host or cells: Sf9 insect cells, baculovirus system (BD Biosciences)
# Sequence (P41279 30-398): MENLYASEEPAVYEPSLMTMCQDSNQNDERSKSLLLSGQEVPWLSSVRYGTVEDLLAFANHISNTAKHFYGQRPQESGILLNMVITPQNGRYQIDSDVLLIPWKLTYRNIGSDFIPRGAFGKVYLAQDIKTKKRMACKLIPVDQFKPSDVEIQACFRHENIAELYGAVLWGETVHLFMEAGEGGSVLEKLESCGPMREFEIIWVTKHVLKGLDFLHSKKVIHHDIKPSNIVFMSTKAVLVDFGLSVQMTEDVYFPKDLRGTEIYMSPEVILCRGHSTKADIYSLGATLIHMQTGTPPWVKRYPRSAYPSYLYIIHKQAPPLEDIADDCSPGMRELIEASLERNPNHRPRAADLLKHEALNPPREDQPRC
# assay-method-text: Tpl2/Cot kinase assay: GST-MEK1 phosphorylation detected by ELISA (DELFIA Eu)
# Format: biochemical
# settings: 0.4 nM Tpl2, 35 nM GST-MEK1, 50 uM ATP, 1 h at 30° C.
measured-endpoint: log10(IC50) (log10 of the value in nM)
Hi team, quick reminder: these entries are log10 of IC50 (nM).

Illustrative cases are given below, each with its answer.
                                   molecule                           measured_target  measured_endpoint  reported_measurement
0  CN(C)c1ccc(CNc2ccc3ncc(C#N)c(Nc4ccc(F)c(Cl)c4)c3c2)c(Br)c1 [Example 56]  human Cot/Tpl2 kinase (Homo sapiens, UniProt P41279)        log10(IC50)                  3.53
1  N#Cc1cnc2c(Br)cc(NCc3cnc[nH]3)cc2c1NC1CCCC1 [Example 96]  human Cot/Tpl2 kinase (Homo sapiens, UniProt P41279)        log10(IC50)                  2.64
2  N#Cc1cnc2c(Cl)cc(NCCn3cc(CCO)nn3)cc2c1Nc1ccc(F)c(Cl)c1 [Example 213]  human Cot/Tpl2 kinase (Homo sapiens, UniProt P41279)        log10(IC50)                  3.18
3  CN1CCN(C(=O)Cn2ccnc2CNc2ccc3ncc(C#N)c(Nc4ccc(F)c(Cl)c4)c3c2)CC1 [Example 141]  human Cot/Tpl2 kinase (Homo sapiens, UniProt P41279)        log10(IC50)                  2.08
4  CNC(=O)CNc1ccc2ncc(C#N)c(Nc3ccc(F)c(Cl)c3)c2c1 [Example 108]  human Cot/Tpl2 kinase (Homo sapiens, UniProt P41279)        log10(IC50)                  2.74

Consider now this further molecule.
Just so you know, measured log10(IC50) for N#Cc1cnc2ccc(NCc3ccccc3F)cc2c1Nc1ccc(F)c(Cl)c1 [Example 144] came out at 2.96
